# EXPERIMENT: H+/Na+ transport assay of purified peptides
# EXPERIMENTAL CONDITIONS: read-out: H+/Na+ transport activity EC50; EYPC/EYPG (19:1) LUVs
Where a SMILES comes first, the peptide text is derived from it. [ ]: non-standard residue; d: D form. The star is where a group is joined. NHCH2CH2OH = OCCN*; For = O=C*
Exercise: for every item that follows, state its recorded pEC50.
Numbers only, as −log10 of the molar value.

COMPOUND	READOUT VALUE
CC(C)C[C@@H](NC(=O)[C@H](C)NC(=O)CNC(=O)[C@@H](NC=O)C(C)C)C(=O)N[C@@H](C)C(=O)N[C@@H](C(=O)N[C@H](C(=O)N[C@@H](C(=O)N[C@@H](Cc1c[nH]c2ccccc12)C(=O)N[C@H](CC(C)C)C(=O)N[C@@H](Cc1c[nH]c2ccccc12)C(=O)N[C@H](CC(C)C)C(=O)N[C@@H](Cc1c[nH]c2ccccc12)C(=O)N[C@H](CC(C)C)C(=O)N[C@@H](Cc1c[nH]c2ccccc12)C(=O)NCCO)C(C)C)C(C)C)C(C)C [compound 1, Gramicidin A] (For-VGA[dL]A[dV]V[dV]W[dL]W[dL]W[dL]W-NHCH2CH2OH)	8.35

Now examine the next entry.
### Prompt Please report pEC50 for the following compound: CNC(=O)C[C@@H](NC(=O)[C@@H](NC(=O)[C@@H](CC(C)C)NC(=O)[C@H](C)NC(=O)[C@@H](CC(C)C)NC(=O)[C@H](C)NC(=O)CNC(=O)[C@@H](NC=O)C(C)C)C(C)C)C(=O)N[C@@H](Cc1c[nH]c2ccccc12)C(=O)N[C@H](CC(C)C)C(=O)N[C@@H](Cc1c[nH]c2ccccc12)C(=O)N[C@H](CC(C)C)C(=O)N[C@@H](Cc1c[nH]c2ccccc12)C(=O)N[C@@H](C(=O)N[C@@H](Cc1c[nH]c2ccccc12)C(=O)NCCO)[C@H](C)O [B22] (For-VGA[dL]A[dL]V[dD](NHMe)W[dL]W[dL]W[dT]W-NHCH2CH2OH)
### Response 8.60
